details: 333.15 K; 101.33 kPa; Liquid; Concentric cylinders viscometry
Measured Quantity: viscosity (mPa·s)

Compound	viscosity [mPa·s]
CC(=O)[O-].CCCC[N+]1(C)CCCC1 [1-butyl-1-methylpyrrolidinium acetate]	21.64

a = CC(=O)O.CCN(C)C [N,N-dimethylethanamine acetate]
b = CC(=O)[O-].CCCCn1cc[n+](C)c1 [1-butyl-3-methylimidazolium acetate]
c = CC(=O)[O-].CCn1cc[nH+]c1 [1-ethyl-1H-imidazolium acetate]
### Prompt Please list the entries, largest viscosity first. // rank by listing labels in the order requested
### Response b, a, c
(b: 42.67 mPa·s, a: 4.869 mPa·s, c: 2.171 mPa·s)
